Measured EC50 accompanies every entry in the list below.
# target.of.assay: CXCR7 (Homo sapiens)
# Construct: host or cells: CHO (PathHunter CHO-CXCR7 β-arrestin cells)
# Sequence (P25106 whole entry): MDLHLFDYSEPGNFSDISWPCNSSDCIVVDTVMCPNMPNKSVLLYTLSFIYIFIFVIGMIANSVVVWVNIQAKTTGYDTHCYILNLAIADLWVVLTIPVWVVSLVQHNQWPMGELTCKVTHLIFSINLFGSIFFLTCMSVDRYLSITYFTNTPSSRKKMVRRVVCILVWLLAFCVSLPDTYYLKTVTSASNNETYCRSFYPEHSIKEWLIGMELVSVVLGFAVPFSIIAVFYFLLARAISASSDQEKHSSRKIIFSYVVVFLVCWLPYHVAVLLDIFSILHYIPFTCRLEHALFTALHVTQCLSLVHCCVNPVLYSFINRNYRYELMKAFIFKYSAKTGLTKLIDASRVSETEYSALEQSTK
# method.summary: CXCR7 β-arrestin recruitment assay (PathHunter CHO-CXCR7, DiscoverX), agonistic assay
# Format: cell-based
# condition: agonistic assay; CHO CXCR7 β-arrestin cells; 90 min at 37° C.; chemiluminescence; read-out: β-Arrestin EC50
Non-standard residues stand in square brackets, D forms with d. Residues, ends and D or L forms follow the SMILES beside them. dPro(cis-4-NH2) = N[C@H]1CN[C@@H](C(=O)O)C1; Abu = CC[C@H](N)C(=O)O
assay.endpoint: EC50

compound	target.of.assay	measured
CC[C@@H]1NC(=O)[C@H]([C@@H](C)O)NC(=O)[C@H]2CCCN2C(=O)[C@H](Cc2c[nH]c3ccccc23)NC(=O)[C@H](CCCNC(=N)N)NC(=O)[C@@H](CCCNC(=N)N)NC1=O [compound 58, cyclo(-Abu-^DArg-Arg-Trp-^DPro-Thr-)] (cyclo([Abu][dR]RW[dP]T))	CXCR7 (Homo sapiens)	330 nM
CC[C@H](C)[C@@H]1NC(=O)[C@H]([C@@H](C)O)NC(=O)[C@H]2C[C@@H](N)CN2C(=O)[C@H](Cc2c[nH]c3ccccc23)NC(=O)[C@H](CCCNC(=N)N)NC(=O)[C@@H](CCCNC(=N)N)NC1=O [Ex. 56] (cyclo(I[dR]RW[dPro(cis-4-NH2)]T))	CXCR7 (Homo sapiens)	949 nM

Every entry's value here was drawn from patent US9637520B2.
